Target: Innovin, lyophilized recombinant human tissue factor combined with phospholipids (human, UniProt P13726 33-295, limits assumed); note: test concentration or dose not given here
Assay: cell-based or functional assay
measured-quantity: T½ Max (seconds), coagulation of human plasma

INSERT INTO results (binder, data_value) VALUES
  ('M1642 (antibody, V domains shown, complete MAb; FR4 is its own entry; also called H22/L369) VH: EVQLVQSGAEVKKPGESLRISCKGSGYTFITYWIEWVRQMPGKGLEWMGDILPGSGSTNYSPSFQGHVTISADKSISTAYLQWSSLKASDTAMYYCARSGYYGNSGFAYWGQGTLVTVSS VL: DIVMTQTPLSLPVTPGEPASISCKSSQSLLTSYNQRNYLTWYLQKPGQSPQLLIYWASTRESGVPDRFSGSGSGTDFTLKISRVEAEDVGVYYCQNDLTYPLTFGQGTKLEIK', 166),
  ('M1602 (antibody, V domains shown, complete MAb; FR4 is its own entry; also called H106/L3) VH: EVQLVQSGAEVKKPGESLRISCKGSGYTFDAHWIEWVRQMPGKGLEWMGDILPGSGFTDYSPSFQGHVTISADKSISTAYLQWSSLKASDTAMYYCARSGYYGNSGFAYWGQGTLVTVSS VL: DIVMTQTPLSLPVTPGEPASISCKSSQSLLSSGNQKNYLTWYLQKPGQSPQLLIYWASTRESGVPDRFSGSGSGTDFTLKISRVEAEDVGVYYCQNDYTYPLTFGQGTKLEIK', 163),
  ('M1650 (antibody, V domains shown, complete MAb; FR4 is its own entry; also called H171/L369) VH: EVQLVQSGAEVKKPGESLRISCKGSGYTFAPYWIEWVRQMPGKGLEWMGDILPGTGFTTYSPSFQGHVTISADKSISTAYLQWSSLKASDTAMYYCARSGYYGNSGFAYWGQGTLVTVSS VL: DIVMTQTPLSLPVTPGEPASISCKSSQSLLTSYNQRNYLTWYLQKPGQSPQLLIYWASTRESGVPDRFSGSGSGTDFTLKISRVEAEDVGVYYCQNDLTYPLTFGQGTKLEIK', 150);
